For each record, write down the corresponding pEC50.
Target entity: Src enzyme (Homo sapiens (Human))
Sequence (P12931 whole entry, looked up): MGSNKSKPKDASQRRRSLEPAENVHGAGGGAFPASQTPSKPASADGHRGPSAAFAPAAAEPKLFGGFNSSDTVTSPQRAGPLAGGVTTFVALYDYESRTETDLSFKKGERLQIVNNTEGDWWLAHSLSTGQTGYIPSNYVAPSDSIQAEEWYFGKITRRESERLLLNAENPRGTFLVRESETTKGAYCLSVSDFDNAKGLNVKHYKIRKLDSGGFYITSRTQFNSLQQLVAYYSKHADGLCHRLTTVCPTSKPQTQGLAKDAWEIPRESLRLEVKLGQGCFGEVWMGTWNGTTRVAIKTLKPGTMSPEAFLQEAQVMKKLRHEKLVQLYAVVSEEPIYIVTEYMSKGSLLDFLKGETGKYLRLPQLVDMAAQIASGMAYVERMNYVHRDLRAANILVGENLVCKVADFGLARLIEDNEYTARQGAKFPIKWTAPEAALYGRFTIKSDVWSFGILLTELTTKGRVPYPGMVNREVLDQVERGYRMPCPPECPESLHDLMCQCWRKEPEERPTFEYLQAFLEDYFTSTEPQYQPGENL
Measurement notes: Src enzyme activity (IMAP fluorescence polarization assay)
Experimental context: read-out: EC50 Src activity values; IMAP, 60 min pre-incubation, 4 μM ATP
pEC50: −log10 of the molar value.

Give pEC50 for this entry on Src enzyme (Homo sapiens (Human)): C=CC(=O)N1CCCC[C@H]1c1nc(-c2ccc(C(=O)Nc3ncccn3)cc2)c2c(N)nccn12
≤ 6.00

Give pEC50 for this entry on Src enzyme (Homo sapiens (Human)): Nc1nccn2c([C@@H]3CCCN3C(=O)/C=C/c3ccccc3)nc(-c3ccc(C(=O)Nc4ccccn4)cc3)c12
≤ 6.00

Give pEC50 for this entry on Src enzyme (Homo sapiens (Human)): CN(C)C/C=C/C(=O)N1CCC[C@H]1c1nc(-c2ccc(C(=O)Nc3cc(F)ccn3)cc2)c2c(N)nccn12
≤ 6.00

Give pEC50 for this entry on Src enzyme (Homo sapiens (Human)): COC/C=C/C(=O)N1CCC[C@H]1c1nc(-c2ccc(C(=O)Nc3ccccn3)cc2)c2c(N)nccn12
≤ 6.00

Give pEC50 for this entry on Src enzyme (Homo sapiens (Human)): CC#CC(=O)N(C)[C@@H](C)c1nc(-c2ccc(C(=O)Nc3cc(CCC)ccn3)cc2)c2c(N)nccn12
≤ 6.00

Recorded values, source patent US9758524B2.
